Overview of recorded kinase still bound, per cent of control for various compounds
molecular target: MAP3K13 (human) (UniProt O43283); assay: KINOMEscan competition binding; conditions: compound 10.0 µM
Sequence (O43283 whole entry, looked up): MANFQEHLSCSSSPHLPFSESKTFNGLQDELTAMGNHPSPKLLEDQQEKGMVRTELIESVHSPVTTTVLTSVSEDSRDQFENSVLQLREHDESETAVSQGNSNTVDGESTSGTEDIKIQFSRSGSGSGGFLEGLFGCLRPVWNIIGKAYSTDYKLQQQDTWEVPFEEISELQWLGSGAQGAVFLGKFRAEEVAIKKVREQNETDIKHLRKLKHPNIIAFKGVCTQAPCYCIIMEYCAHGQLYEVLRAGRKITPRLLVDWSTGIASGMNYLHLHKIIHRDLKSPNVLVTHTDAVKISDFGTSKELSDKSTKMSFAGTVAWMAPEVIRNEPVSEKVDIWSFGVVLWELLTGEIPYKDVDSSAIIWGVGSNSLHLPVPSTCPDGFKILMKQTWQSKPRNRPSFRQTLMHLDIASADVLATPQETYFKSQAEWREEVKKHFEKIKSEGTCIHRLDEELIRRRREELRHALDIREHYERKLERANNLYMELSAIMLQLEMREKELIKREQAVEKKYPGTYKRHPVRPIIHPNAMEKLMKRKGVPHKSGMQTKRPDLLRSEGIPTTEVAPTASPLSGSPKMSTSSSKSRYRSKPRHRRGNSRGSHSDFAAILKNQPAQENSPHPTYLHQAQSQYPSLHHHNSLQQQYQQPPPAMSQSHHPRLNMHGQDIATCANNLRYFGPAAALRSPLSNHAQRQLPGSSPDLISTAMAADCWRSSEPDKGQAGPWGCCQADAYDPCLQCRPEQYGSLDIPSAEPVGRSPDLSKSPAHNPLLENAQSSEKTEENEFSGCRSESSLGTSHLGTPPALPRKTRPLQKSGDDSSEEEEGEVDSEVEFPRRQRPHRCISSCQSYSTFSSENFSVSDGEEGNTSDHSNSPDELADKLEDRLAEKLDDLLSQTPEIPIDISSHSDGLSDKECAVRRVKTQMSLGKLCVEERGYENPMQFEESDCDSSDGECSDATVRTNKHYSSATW
Put down the number, then write its unit next to it.

Worked examples, 3 compounds total:
[
  {
    "chemical_string": "CN(C)C/C=C/C(=O)Nc1ccc(C(=O)Nc2cccc(Nc3nccc(-c4cccnc4)n3)c2)cc1",
    "target_or_test_system": "MAP3K13 (human) (UniProt O43283)",
    "readout": "kinase still bound, per cent of control",
    "observed_measurement": "100%"
  },
  {
    "chemical_string": "CCN(CC)CCCCNc1ncc2c(n1)N(C)C(=O)N(c1c(Cl)c(OC)cc(OC)c1Cl)C2",
    "target_or_test_system": "MAP3K13 (human) (UniProt O43283)",
    "readout": "kinase still bound, per cent of control",
    "observed_measurement": "100%"
  },
  {
    "chemical_string": "COc1cc2ncnc(-n3nc(-c4ccccn4)nc3N)c2cc1OC",
    "target_or_test_system": "MAP3K13 (human) (UniProt O43283)",
    "readout": "kinase still bound, per cent of control",
    "observed_measurement": "96%"
  }
]

get_value(item= COc1cc2ncn(-c3cc(OCc4ccccc4C(F)(F)F)c(C(N)=O)s3)c2cc1OC , readout=kinase still bound, per cent of control) returns 100%

get_value(item= COc1cc(C(=O)N2CCC(N3CCN(C)CC3)CC2)ccc1Nc1ncc2c(n1)N(C)c1ccccc1C(=O)N2C , readout=kinase still bound, per cent of control) returns 100%

get_value(item= N#CCNC(=O)c1ccc(-c2ccnc(Nc3ccc(N4CCOCC4)cc3)n2)cc1 , readout=kinase still bound, per cent of control) returns 77%

* * *

biological target: MAP2K3 (human) (UniProt P46734); experiment: KINOMEscan competition binding; conditions: compound 10.0 µM
Sequence (P46734 whole entry, looked up): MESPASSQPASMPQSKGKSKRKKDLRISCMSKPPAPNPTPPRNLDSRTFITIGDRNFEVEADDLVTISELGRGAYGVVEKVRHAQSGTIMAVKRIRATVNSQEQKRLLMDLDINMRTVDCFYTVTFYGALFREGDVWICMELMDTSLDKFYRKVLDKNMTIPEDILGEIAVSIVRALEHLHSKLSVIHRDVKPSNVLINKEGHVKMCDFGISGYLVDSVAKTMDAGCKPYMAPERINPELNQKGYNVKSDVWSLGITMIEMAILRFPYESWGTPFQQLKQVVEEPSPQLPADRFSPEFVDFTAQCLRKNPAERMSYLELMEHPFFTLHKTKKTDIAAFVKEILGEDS
Overview of recorded kinase still bound, per cent of control for various compounds
Provide only the numeric value, understood in %.

Worked examples, 5 compounds total:
[
  {
    "chemical_string": "NC(=O)Nc1cc(-c2cccc(F)c2)sc1C(=O)N[C@@H]1CCCNC1",
    "readout": "kinase still bound, per cent of control",
    "observed_measurement": 10
  },
  {
    "chemical_string": "C[C@@H](Oc1cc(-c2cnn(C3CCNCC3)c2)cnc1N)c1c(Cl)ccc(F)c1Cl",
    "readout": "kinase still bound, per cent of control",
    "observed_measurement": 42
  },
  {
    "chemical_string": "N#CCNC(=O)c1ccc(-c2ccnc(Nc3ccc(N4CCOCC4)cc3)n2)cc1",
    "readout": "kinase still bound, per cent of control",
    "observed_measurement": 53
  },
  {
    "chemical_string": "CN(C)C/C=C/C(=O)Nc1ccc(C(=O)Nc2cccc(Nc3nccc(-c4cccnc4)n3)c2)cc1",
    "readout": "kinase still bound, per cent of control",
    "observed_measurement": 24
  },
  {
    "chemical_string": "O=C(Nc1cccc(Nc2ncc(Br)c(NCCc3cnc[nH]3)n2)c1)N1CCCC1",
    "readout": "kinase still bound, per cent of control",
    "observed_measurement": 23
  }
]

Tested on MAP2K3 (human) (UniProt P46734): CNC(=O)c1cc(Oc2ccc(NC(=O)Nc3ccc(Cl)c(C(F)(F)F)c3)cc2)ccn1 . Observed kinase still bound, per cent of control: 97

Tested on MAP2K3 (human) (UniProt P46734): CCN(CC)CCCCNc1ncc2c(n1)N(C)C(=O)N(c1c(Cl)c(OC)cc(OC)c1Cl)C2 . Observed kinase still bound, per cent of control: 100
